- protocol details: In vitro metabolism in male human liver microsomes (HLM)
- Type: in vitro ADME
- stated conditions: 1 mg microsomal protein, 2.5 mM NADPH, 2 μM compound, pH 7.4, 37° C.
Parameter HLM: see the listing below.
measurement kind: HLM (min)

1) CC(C)N(c1cc(F)c(Oc2ncccc2C(F)(F)F)cc1C(=O)O)C(=O)[C@H]1CC[C@H](C)CC1 [Compound 1011]
136
2) Cc1nc(Cc2cnc(Oc3cc(C(=O)O)c(N(C(=O)[C@H]4CC[C@H](C)CC4)C(C)C)cc3F)c(C(F)(F)F)c2)cs1 [Compound 1072]
129
3) CC(C)N(c1ccc(Oc2ncccc2C(F)(F)F)cc1C(=O)O)C(=O)[C@H]1CC[C@H](C)CC1
69
4) Cc1nc(Cc2ccc(Oc3ccc(N(C(=O)[C@H]4CC[C@H](C)CC4)C(C)C)c(C(=O)O)c3)c(C(F)(F)F)c2)cs1
29

Each recorded value in this set is attributed to patent US20100286131A1.
